- System: MRSA USA300
- Format: cell-based, Staphylococcus aureus
- assay.context: duplicate experiments
Could you please report measured MIC values MRSA USA300 for the items listed next?
Write it as a number; the unit µg/mL goes unstated.

**Query** Fill in MIC values MRSA USA300 for record "C=C1NC(=O)[C@H]([C@@H](C)CC)NC(=O)[C@H](NC(=O)C(=CC)NC(=O)[C@@H](N)[C@@H](C)CC)CSC[C@@H](C(=O)N[C@H]2C(=O)N3CCC[C@H]3C(=O)NCC(=O)N[C@H](C(=O)N[C@@H](CCCCN)C(=O)NCCCCCCCCC)CS[C@H]2C)NC(=O)[C@H](CC(C)C)NC1=O"
**Result** 32

**Query** Fill in MIC values MRSA USA300 for record "C=C1NC(=O)[C@H]([C@@H](C)CC)NC(=O)[C@H](NC(=O)C(=CC)NC(=O)[C@@H](N)[C@@H](C)CC)CSC[C@@H](C(=O)N[C@H]2C(=O)N3CCC[C@H]3C(=O)NCC(=O)N[C@H](C(=O)N[C@@H](CCCCN)C(=O)N[C@@H](Cc3ccccc3)C(=O)NCCCCCCCCCC)CS[C@H]2C)NC(=O)[C@H](CC(C)C)NC1=O"
**Result** 8

**Query** Fill in MIC values MRSA USA300 for record "C=C1NC(=O)[C@H]([C@@H](C)CC)NC(=O)[C@H](NC(=O)C(=CC)NC(=O)[C@@H](N)[C@@H](C)CC)CSC[C@@H](C(=O)N[C@H]2C(=O)N3CCC[C@H]3C(=O)NCC(=O)N[C@H](C(=O)N[C@@H](CCCCNC(=O)CCCCCCCC)C(=O)NC)CS[C@H]2C)NC(=O)[C@H](CC(C)C)NC1=O"
**Result** 32

**Query** Fill in MIC values MRSA USA300 for record "C=C1NC(=O)[C@H]([C@@H](C)CC)NC(=O)[C@H](NC(=O)C(=CC)NC(=O)[C@@H](N)[C@@H](C)CC)CSC[C@@H](C(=O)N[C@H]2C(=O)N3CCC[C@H]3C(=O)NCC(=O)N[C@H](C(=O)N[C@@H](CCCCNC(=O)CCN)C(=O)NCCCCCCCCCCCC)CS[C@H]2C)NC(=O)[C@H](CC(C)C)NC1=O"
**Result** 8

**Query** Fill in MIC values MRSA USA300 for record "C=C1NC(=O)[C@H]([C@@H](C)CC)NC(=O)[C@H](NC(=O)C(=CC)NC(=O)[C@@H](N)[C@@H](C)CC)CSC[C@@H](C(=O)N[C@H]2C(=O)N3CCC[C@H]3C(=O)NCC(=O)N[C@H](C(=O)N[C@@H](CCCCN)C(=O)NCCCCCCCCCC)CS[C@H]2C)NC(=O)[C@H](CC(C)C)NC1=O"
**Result** 16

**Query** Fill in MIC values MRSA USA300 for record "C=C1NC(=O)[C@H]([C@@H](C)CC)NC(=O)[C@H](NC(=O)C(=CC)NC(=O)[C@@H](N)[C@@H](C)CC)CSC[C@@H](C(=O)N[C@H]2C(=O)N3CCC[C@H]3C(=O)NCC(=O)N[C@H](C(=O)N[C@@H](CCCCN)C(=O)NCCCCCCCCCCCCCC)CS[C@H]2C)NC(=O)[C@H](CC(C)C)NC1=O"
**Result** 64

**Query** Fill in MIC values MRSA USA300 for record "C=C1NC(=O)[C@H]([C@@H](C)CC)NC(=O)[C@H](NC(=O)C(=CC)NC(=O)[C@@H](N)[C@@H](C)CC)CSC[C@@H](C(=O)N[C@H]2C(=O)N3CCC[C@H]3C(=O)NCC(=O)N[C@H](C(=O)N[C@@H](CCCCN)C(=O)NCCCCCCCCCCCC)CS[C@H]2C)NC(=O)[C@H](CC(C)C)NC1=O"
**Result** 4

---

Could you please report measured MIC values VRE 155 for the items listed next?
- Test system: VRE 155
- Type: cell-based
- assay.context: duplicate experiments
Write it as a number; the unit µg/mL goes unstated.

**Query** Fill in MIC values VRE 155 for record C=C1NC(=O)[C@H]([C@@H](C)CC)NC(=O)[C@H](NC(=O)C(=CC)NC(=O)[C@@H](N)[C@@H](C)CC)CSC[C@@H](C(=O)N[C@H]2C(=O)N3CCC[C@H]3C(=O)NCC(=O)N[C@H](C(=O)N[C@@H](CCCCNC(=O)CCCCCCCC)C(=O)NC)CS[C@H]2C)NC(=O)[C@H](CC(C)C)NC1=O [(19)]
**Result** 8

**Query** Fill in MIC values VRE 155 for record C=C1NC(=O)[C@H]([C@@H](C)CC)NC(=O)[C@H](NC(=O)C(=CC)NC(=O)[C@@H](N)[C@@H](C)CC)CSC[C@@H](C(=O)N[C@H]2C(=O)N3CCC[C@H]3C(=O)NCC(=O)N[C@H](C(=O)N[C@@H](CCCCN)C(=O)NCCCCCCCCCCCCCC)CS[C@H]2C)NC(=O)[C@H](CC(C)C)NC1=O [(10)]
**Result** 4

**Query** Fill in MIC values VRE 155 for record C=C1NC(=O)[C@H]([C@@H](C)CC)NC(=O)[C@H](NC(=O)C(=CC)NC(=O)[C@@H](N)[C@@H](C)CC)CSC[C@@H](C(=O)N[C@H]2C(=O)N3CCC[C@H]3C(=O)NCC(=O)N[C@H](C(=O)N[C@@H](CCCCN)C(=O)N[C@@H](Cc3c[nH]c4ccccc34)C(=O)NCCCCCCCCCC)CS[C@H]2C)NC(=O)[C@H](CC(C)C)NC1=O [(15)]
**Result** 2

**Query** Fill in MIC values VRE 155 for record C=C1NC(=O)[C@H]([C@@H](C)CC)NC(=O)[C@H](NC(=O)C(=CC)NC(=O)[C@@H](N)[C@@H](C)CC)CSC[C@@H](C(=O)N[C@H]2C(=O)N3CCC[C@H]3C(=O)NCC(=O)N[C@H](C(=O)N[C@@H](CCCCN)C(=O)NCCCCCCCCCC)CS[C@H]2C)NC(=O)[C@H](CC(C)C)NC1=O [(6)]
**Result** 8

**Query** Fill in MIC values VRE 155 for record C=C1NC(=O)[C@H]([C@@H](C)CC)NC(=O)[C@H](NC(=O)C(=CC)NC(=O)[C@@H](N)[C@@H](C)CC)CSC[C@@H](C(=O)N[C@H]2C(=O)N3CCC[C@H]3C(=O)NCC(=O)N[C@H](C(=O)N[C@@H](CCCCN)C(=O)NCc3ccc(-c4ccc(Cl)cc4)cc3)CS[C@H]2C)NC(=O)[C@H](CC(C)C)NC1=O [(13)]
**Result** 4

**Query** Fill in MIC values VRE 155 for record C=C1NC(=O)[C@H]([C@@H](C)CC)NC(=O)[C@H](NC(=O)C(=CC)NC(=O)[C@@H](N)[C@@H](C)CC)CSC[C@@H](C(=O)N[C@H]2C(=O)N3CCC[C@H]3C(=O)NCC(=O)N[C@H](C(=O)N[C@@H](CCCCN)C(=O)NCCCCCCCCCCCCCCC)CS[C@H]2C)NC(=O)[C@H](CC(C)C)NC1=O [(11)]
**Result** 8

**Query** Fill in MIC values VRE 155 for record C=C1NC(=O)[C@H]([C@@H](C)CC)NC(=O)[C@H](NC(=O)C(=CC)NC(=O)[C@@H](N)[C@@H](C)CC)CSC[C@@H](C(=O)N[C@H]2C(=O)N3CCC[C@H]3C(=O)NCC(=O)N[C@H](C(=O)N[C@@H](CCCCN)C(=O)NCCCCCCCC)CS[C@H]2C)NC(=O)[C@H](CC(C)C)NC1=O [(4)]
**Result** 16

---

- System: MRSA USA300
- Format: cell-based, Staphylococcus aureus
- assay.context: duplicate experiments
readout.label: MIC values MRSA USA300 (µg/mL)
Write it as a number; the unit µg/mL goes unstated.

**Query** Fill in MIC values MRSA USA300 for record "C=C1NC(=O)[C@H]([C@@H](C)CC)NC(=O)[C@H](NC(=O)C(=CC)NC(=O)[C@@H](N)[C@@H](C)CC)CSC[C@@H](C(=O)N[C@H]2C(=O)N3CCC[C@H]3C(=O)NCC(=O)N[C@H](C(=O)N[C@@H](CCCCN)C(=O)NCCCCCCCCCCCCCCC)CS[C@H]2C)NC(=O)[C@H](CC(C)C)NC1=O"
**Result** 64

**Query** Fill in MIC values MRSA USA300 for record "C=C1NC(=O)[C@H]([C@@H](C)CC)NC(=O)[C@H](NC(=O)C(=CC)NC(=O)[C@@H](N)[C@@H](C)CC)CSC[C@@H](C(=O)N[C@H]2C(=O)N3CCC[C@H]3C(=O)NCC(=O)N[C@H](C(=O)N[C@@H](CCCCN)C(=O)NCCC[N+](C)(C)CCCCCCCCCC)CS[C@H]2C)NC(=O)[C@H](CC(C)C)NC1=O"
**Result** 8

**Query** Fill in MIC values MRSA USA300 for record "C=C1NC(=O)[C@H]([C@@H](C)CC)NC(=O)[C@H](NC(=O)C(=CC)NC(=O)[C@@H](N)[C@@H](C)CC)CSC[C@@H](C(=O)N[C@H]2C(=O)N3CCC[C@H]3C(=O)NCC(=O)N[C@H](C(=O)N[C@@H](CCCCN)C(=O)NCc3ccc(-c4ccc(Cl)cc4)cc3)CS[C@H]2C)NC(=O)[C@H](CC(C)C)NC1=O"
**Result** 8

**Query** Fill in MIC values MRSA USA300 for record "C=C1NC(=O)[C@H]([C@@H](C)CC)NC(=O)[C@H](NC(=O)C(=CC)NC(=O)[C@@H](N)[C@@H](C)CC)CSC[C@@H](C(=O)N[C@H]2C(=O)N3CCC[C@H]3C(=O)NCC(=O)N[C@H](C(=O)N[C@@H](CCCCN)C(=O)NC/C=C(\C)CC/C=C(\C)CCC=C(C)C)CS[C@H]2C)NC(=O)[C@H](CC(C)C)NC1=O"
**Result** 16

**Query** Fill in MIC values MRSA USA300 for record "C=C1NC(=O)[C@H]([C@@H](C)CC)NC(=O)[C@H](NC(=O)C(=CC)NC(=O)[C@@H](N)[C@@H](C)CC)CSC[C@@H](C(=O)N[C@H]2C(=O)N3CCC[C@H]3C(=O)NCC(=O)N[C@H](C(=O)N[C@@H](CCCCN)C(=O)N[C@@H](Cc3ccc(O)cc3)C(=O)NCCCCCCCCCC)CS[C@H]2C)NC(=O)[C@H](CC(C)C)NC1=O"
**Result** 8

**Query** Fill in MIC values MRSA USA300 for record "C=C1NC(=O)[C@H]([C@@H](C)CC)NC(=O)[C@H](NC(=O)C(=CC)NC(=O)[C@@H](N)[C@@H](C)CC)CSC[C@@H](C(=O)N[C@H]2C(=O)N3CCC[C@H]3C(=O)NCC(=O)N[C@H](C(=O)N[C@@H](CCCCN)C(=O)NCCCCCCCCCCCCC)CS[C@H]2C)NC(=O)[C@H](CC(C)C)NC1=O"
**Result** 4

**Query** Fill in MIC values MRSA USA300 for record "C=C1NC(=O)[C@H]([C@@H](C)CC)NC(=O)[C@H](NC(=O)C(=CC)NC(=O)[C@@H](NC(=O)CCN)[C@@H](C)CC)CSC[C@@H](C(=O)N[C@H]2C(=O)N3CCC[C@H]3C(=O)NCC(=O)N[C@H](C(=O)N[C@@H](CCCCNC(=O)CCN)C(=O)NCCCCCCCCCCCC)CS[C@H]2C)NC(=O)[C@H](CC(C)C)NC1=O"
**Result** 16

**Query** Fill in MIC values MRSA USA300 for record "C=C1NC(=O)[C@H]([C@@H](C)CC)NC(=O)[C@H](NC(=O)C(=CC)NC(=O)[C@@H](N)[C@@H](C)CC)CSC[C@@H](C(=O)N[C@H]2C(=O)N3CCC[C@H]3C(=O)NCC(=O)N[C@H](C(=O)N[C@@H](CCCCN)C(=O)NCCCCCCC)CS[C@H]2C)NC(=O)[C@H](CC(C)C)NC1=O"
**Result** 64

**Query** Fill in MIC values MRSA USA300 for record "C=C1NC(=O)[C@H]([C@@H](C)CC)NC(=O)[C@H](NC(=O)C(=CC)NC(=O)[C@@H](N)[C@@H](C)CC)CSC[C@@H](C(=O)N[C@H]2C(=O)N3CCC[C@H]3C(=O)NCC(=O)N[C@H](C(=O)N[C@@H](CCCCN)C(=O)N[C@@H](Cc3c[nH]cn3)C(=O)NCCCCCCCCCC)CS[C@H]2C)NC(=O)[C@H](CC(C)C)NC1=O"
**Result** 8
